Test system: SK-MEL-2 multi-cell spheroids, viability
measurement-protocol: Anticancer human tumor SK-MEL-2 cell line growth inhibition [TAK];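 also: spheroids exposed to drugs for seven days before readout; percent of DMSO vehicle control luminescence so 100% = untreated viability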
test-context: second compound 0.949 µM; first compound 0.01 µM; stronger effect = lower value
In this section, each of the compounds is paired with its reported viability, T/C.
attribute-measured: viability, T/C

[[record]]
compound = "CC(C)CC(NC(=O)CNC(=O)c1cc(Cl)ccc1Cl)B1OC(=O)CC(CC(=O)O)(C(=O)O)O1 (stereo not given) + CC(C)NCC(C(=O)N1CCN(c2ncnc3c2C(C)CC3O)CC1)c1ccc(Cl)cc1"
attribute_measured = "viability, T/C"
reported_value = "59.5%"

[[record]]
compound = "CC(C)n1nc(-c2ccc3oc(N)nc3c2)c2c(N)ncnc21 + CC(C)NCC(C(=O)N1CCN(c2ncnc3c2C(C)CC3O)CC1)c1ccc(Cl)cc1"
attribute_measured = "viability, T/C"
reported_value = "55.6%"

[[record]]
compound = "COC1CC2CCC(C)C(O)(O2)C(=O)C(=O)N2CCCCC2C(=O)OC(C(C)CC2CCC(OCCO)C(OC)C2)CC(=O)C(C)C=C(C)C(O)C(OC)C(=O)C(C)CC(C)C=CC=CC=C1C (stereo not given) + CC(C)NCC(C(=O)N1CCN(c2ncnc3c2C(C)CC3O)CC1)c1ccc(Cl)cc1"
attribute_measured = "viability, T/C"
reported_value = "38.6%"

[[record]]
compound = "COc1c(OCCCN2CCOCC2)ccc2c3n(c(=NC(=O)c4cnc(N)nc4)nc12)CCN3 + CC(C)NCC(C(=O)N1CCN(c2ncnc3c2C(C)CC3O)CC1)c1ccc(Cl)cc1"
attribute_measured = "viability, T/C"
reported_value = "65%"

[[record]]
compound = "CC(C)CC(NC(=O)C(Cc1ccccc1)NC(=O)c1cnccn1)B(O)O (stereo not given) + CC(C)NCC(C(=O)N1CCN(c2ncnc3c2C(C)CC3O)CC1)c1ccc(Cl)cc1"
attribute_measured = "viability, T/C"
reported_value = "118%"


These entries and their values trace back to PubChem BioAssay AID2060344.
